// provenance: patent US9328075B2

Consider the following compounds and their measured CC50 at 72 h readings.
Experiment: in vitro
Conditions: dog
endpoint.name: CC50 at 72 h

| compound | endpoint.name | value.measured |
| --- | --- | --- |
| CC1CCC(NC(=O)c2nc(-c3ccccn3)[nH]c(=O)c2O)CC1 (stereo not shown) | CC50 at 72 h | > 25 µM |
| CC1CCCCC1NC(=O)c1nc(-c2ccccn2)nc(O)c1O (stereo not shown) | CC50 at 72 h | 5.5 µM |
| O=C(NCc1cccc2ccccc12)c1nc(-c2ccccn2)[nH]c(=O)c1O | CC50 at 72 h | > 25 µM |
| COc1ccc(NC(=O)c2nc(-c3ccccn3)nc(O)c2O)c(C)c1 | CC50 at 72 h | > 25 µM |
| CC(C)CC(C)NC(=O)c1nc(-c2ccccn2)nc(O)c1O (stereo not shown) | CC50 at 72 h | > 25 µM |
| CC(C)(C)c1cccc(NC(=O)c2nc(-c3ccccn3)nc(O)c2O)c1 | CC50 at 72 h | > 25 µM |
| CC(CNC(=O)c1nc(-c2ccccn2)nc(O)c1O)c1ccccc1 (stereo not shown) | CC50 at 72 h | > 25 µM |
| O=C(NC1CCCc2ccccc21)c1nc(-c2ccccn2)[nH]c(=O)c1O (stereo not shown) | CC50 at 72 h | 7 µM |
| Cc1ccccc1NC(=O)c1nc(-c2ccccn2)nc(O)c1O | CC50 at 72 h | > 25 µM |
| Cc1cccc(NC(=O)c2nc(-c3ccccn3)nc(O)c2O)c1 | CC50 at 72 h | > 25 µM |
| CC(C)(C)CCNC(=O)c1nc(-c2ccccn2)nc(O)c1O | CC50 at 72 h | > 25 µM |
| CCCCCC(C)NC(=O)c1nc(-c2ccccn2)nc(O)c1O (stereo not shown) | CC50 at 72 h | > 25 µM |
| CCCCC(CC)CNC(=O)c1nc(-c2ccccn2)nc(O)c1O (stereo not shown) | CC50 at 72 h | > 25 µM |
